target-system: Virion infectivity factor (Human immunodeficiency virus type 1 group M subtype B (isolate BH10)) + Virion infectivity factor (Human immunodeficiency virus type 1 group M subtype B (isolate BRU/LAI)) + Virion infectivity factor (Human immunodeficiency virus type 1 group M subtype B (isolate PCV12)) + Virion infectivity factor (Human immunodeficiency virus type 1 group M subtype B (isolate HXB2)) + DNA dC->dU-editing enzyme APOBEC-3G (Homo sapiens) (UniProt P69720+P69721+P69722+P69723+Q9HC16)
assay: HIV-1 Vif–A3G interaction blockers – biochemical, TR-FRET, GST-Vif 1-94, biotin-A3G peptide, dose response retest, primary screen (AID 1117319);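 also: Vif residues 1-94 fused to GST binding biotinylated APOBEC3G peptide 110-148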
assay-setup: TR-FRET GST-Vif / biotin-A3G peptide binding
pIC50: −log10 of the molar value. Records with an inconclusive call do not appear.
Hi there, I'd appreciate the recorded pIC50 for every entry that follows.

# count of solved cases: 10
CN(CC(=O)Nc1cccc(F)c1)C(=O)c1cccc(-n2cccc2)c1 :: 5.09
CN1C(=O)/C(=C/c2cccn2-c2ccc3ccccc3c2)C(=O)NC1=S :: > 5.09
COc1cc(CNc2ccc(O)cc2)cc(Br)c1OCc1ccccc1 :: 5.52
C=CCn1c(Sc2nc(C)cs2)nc2c1c(=O)[nH]c(=O)n2C :: 4.03
CCCC(=O)Nc1ccc(Br)cn1 :: 4.19
O=c1cc(OCc2ccccc2)cc[nH]1 :: 5.51
Cc1cc(/C=C2\SC(=S)NC2=O)c(C)n1C :: 4.44
O=C(/C=C/c1ccc(O)c(O)c1)OC1C(O)CC(OC(=O)/C=C/c2ccc(O)c(O)c2)(C(=O)O)CC1O (stereo not drawn) :: 4.79
COc1cc(NC(=O)c2cc3nc(C)cc(C)n3n2)c(OC)cc1Cl :: 4.04
O=C1/C(=C/c2ccco2)Oc2c1ccc(O)c2CN1CCCCC1 :: 5.87

Record pIC50 per entry; entries follow.
1. CCOC(=O)C1CCCN(C(=O)c2cc(-c3ccco3)nc3ccccc23)C1 (stereo not drawn)
2. CC(C)(C)C1C/C(=C/c2ccco2)C(=O)/C(=C/c2ccco2)C1 (stereo not drawn)
3. CC1=CC(C)(C)Nc2ccc(OC(=O)CN3C(=O)c4cccc5cccc(c45)C3=O)cc21

1. 5.58
2. 5.58
3. 5.70

* * *

Hi there, I'd appreciate the recorded IC50 for every entry that follows.
target-system: Virion infectivity factor (Human immunodeficiency virus type 1 group M subtype B (isolate BH10)) + Virion infectivity factor (Human immunodeficiency virus type 1 group M subtype B (isolate BRU/LAI)) + Virion infectivity factor (Human immunodeficiency virus type 1 group M subtype B (isolate PCV12)) + Virion infectivity factor (Human immunodeficiency virus type 1 group M subtype B (isolate HXB2)) + DNA dC->dU-editing enzyme APOBEC-3G (Homo sapiens) (UniProt P69720+P69721+P69722+P69723+Q9HC16)
assay: HIV-1 Vif–A3G interaction blockers – biochemical, TR-FRET, GST-Vif 1-94, biotin-A3G peptide, dose response retest, primary screen (AID 1117319);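 also: Vif residues 1-94 fused to GST binding biotinylated APOBEC3G peptide 110-148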
assay-setup: TR-FRET GST-Vif / biotin-A3G peptide binding
Inconclusive results are not listed.

Consider the following illustrative entries.
CC(=O)c1ccc2c(c1)C1C=CCC1C(C(=O)O)N2 (configuration not stated) :: 0.6 µM
O=C(O)CCCN1C(=O)/C(=C\C(Cl)=C\c2ccccc2)SC1=S :: 2.45 µM
CCn1c(SCC(=O)OC)nc2sc3c(c2c1=O)CCC3 :: 12.7 µM
O=[N+]([O-])c1c(NCCCO)cc(SCc2ccco2)c2nonc12 :: 4.65 µM
N#Cc1ccc(N2CCN(C(=O)c3cccc(F)c3)CC2)c(F)c1 :: 91 µM
CN(C)c1cc(Cl)c2nonc2c1N :: 11.9 µM
COc1cccc(N2C(=O)NC(=O)/C(=C/c3ccc([N+](=O)[O-])s3)C2=O)c1 :: 7.18 µM
CN1C(=O)/C(=C/C=C/c2ccco2)C(=O)NC1=S :: 13.4 µM

Fill in IC50 for each of the 8 compounds listed.
1. Cc1c2ccccc2nc2c(F)c(N(C)C)c(F)c(F)c12
2. O=[N+]([O-])c1ccc(N/N=C/c2ccc(O)c(O)c2O)c(S(=O)(=O)N2CCOCC2)c1
3. Cc1ccc[n+](-c2[nH]c(=O)sc2/C=N/NC(=O)c2ccccc2[O-])c1
4. O=S(=O)(O)c1cc(O)c2c(O)c(N=Nc3cc(Cl)ccc3O)c(S(=O)(=O)O)cc2c1
5. Oc1cc2c(cc1O)C1c3ccc(O)c(O)c3OCC1(O)C2 (configuration not stated)
6. Cc1ccc(N2C(=O)/C(=C\c3ccco3)SC2=S)cc1
7. CCN(CC)c1ccc(C=Nc2ccc(N(C)C)cc2)c(O)c1
8. COc1ccc(/C=C(\NC(=O)c2ccc(OCC(C)C)cc2)C(=O)OCc2ccco2)cc1

1: 15.7 µM; 2: 1.14 µM; 3: 51.4 µM; 4: 78.5 µM; 5: 0.46 µM; 6: 7.72 µM; 7: 35.7 µM; 8: 32.7 µM

# return IC50 for each item in the list
1. O=[N+]([O-])c1ccc(-c2ccc(/C=N/c3c(-c4ccco4)nc4ccccn34)o2)cc1
2. O=C(O)c1cccc(CSc2nnc(COc3ccccc3)o2)c1

0.26 µM
88.2 µM

Count: 3. Required value per item: IC50.
1. CC(=O)NN1C(=O)/C(=C/c2ccc(Br)o2)SC1=S
2. Cc1cc2c(=Cc3ccc(N(C)C)cc3)c3ccccc3n2[n+]1C
3. Clc1ccc(/C=N/c2c(-c3ccco3)nc3ccccn23)cc1

11.7 µM
16.9 µM
14.1 µM

Field request: IC50 | item: `O=C(NC(=S)Nc1cccc(S(=O)(=O)NC2=NCCC2)c1)c1cc(-c2ccco2)nc2ccccc12`
8.99 µM

* * *

target-system: Virion infectivity factor (Human immunodeficiency virus type 1 group M subtype B (isolate BH10)) + Virion infectivity factor (Human immunodeficiency virus type 1 group M subtype B (isolate BRU/LAI)) + Virion infectivity factor (Human immunodeficiency virus type 1 group M subtype B (isolate PCV12)) + Virion infectivity factor (Human immunodeficiency virus type 1 group M subtype B (isolate HXB2)) + DNA dC->dU-editing enzyme APOBEC-3G (Homo sapiens) (UniProt P69720+P69721+P69722+P69723+Q9HC16)
assay: HIV-1 Vif–A3G interaction blockers – biochemical, TR-FRET, GST-Vif 1-94, biotin-A3G peptide, dose response retest, primary screen (AID 1117319);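 also: Vif residues 1-94 fused to GST binding biotinylated APOBEC3G peptide 110-148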
assay-setup: TR-FRET GST-Vif / biotin-A3G peptide binding
Records with an inconclusive call do not appear.
readout-name: IC50

Solved entries:
CC1(C)C/C(=C(/C#N)C(N)=O)CCO1 :: 80.7 µM
O=C(O)c1cccc(-n2cccc2/C=C/[N+](=O)[O-])c1 :: 5.49 µM
NC1=NC(=O)/C(=C\c2ccco2)S1 :: 3.07 µM
CS(=O)(=O)c1ccc(C(=O)Nc2nc(-c3ccco3)c(-c3ccco3)s2)cc1 :: 22.1 µM
C=CCN1C(=O)/C(=C\c2ccco2)C(C(=O)OC)=C1C :: 14.1 µM

Here are 8 compounds. What values of IC50 were reported for them?
1. CCN(CC)S(=O)(=O)c1cccc(C(=O)N/N=C/c2ccc(O)c(O)c2O)c1
2. COC1=C(Br)C(=O)c2nc(C)ccc2C1=O
3. O=C(O)C1Cc2ccccc2N2CCCC12 (stereo not drawn)
4. O=C(/C=C/c1ccco1)N(c1ccccn1)c1ccccn1
5. Oc1ccc(NCc2cccc(OCc3ccc(F)cc3)c2)cc1
6. O=[N+]([O-])c1ccc(/C=N/Nc2nc(N3CCCC3)nc(N3CCCC3)n2)o1
7. O=C(O)CCc1ccc(S(=O)(=O)Nc2cc(C(F)(F)F)ccc2N2CCCC2)cc1
8. Cc1cc(C)cc(N(CC(=O)NCc2cccnc2)S(C)(=O)=O)c1

1. 3.48 µM
2. 13.6 µM
3. 15.2 µM
4. 3.05 µM
5. 2.37 µM
6. 54.2 µM
7. 14.4 µM
8. 36.7 µM

Please state IC50 for every compound in the list that follows.
1. COC(=O)C1=C(C)N(Cc2ccccc2)C(=O)/C1=C\c1ccco1
2. Oc1ccc(N=Cc2sc3ccccc3c2Cl)cc1
3. N#CC1=C(N)OC2=C(CCC/C2=C/c2ccoc2)C1c1ccoc1 (stereo not drawn)

11.2 µM
3.11 µM
2.64 µM

Dear colleague, could you send me IC50 for each of the items below? Thanks.
1. C=CCn1c(COc2ccc(F)cc2)nnc1SCC(=O)NC(=O)NCc1ccco1
2. O=C(COC(=O)Cc1ccc(Cl)cc1)NCc1ccco1
3. O=C1CCCC/C1=C/Nc1ccc2c(c1)OCO2
4. CCOc1cccc(=O)c2c(C)n(-c3ccc(C(=O)O)cc3)c(C)c12
5. CC(=C/C(=O)O)/C=C/c1ccc(Cl)o1

["40.7 µM", "7.37 µM", "5.94 µM", "4.49 µM", "27.4 µM"]

Would you mind listing IC50 for each of the following compounds?
1. CSc1oc(-c2ccco2)nc1S(=O)(=O)c1ccccc1
2. CC1CC(=O)c2c(cc3c(-c4c(O)cc(O)c5c(O)c6c(cc45)OC(C)CC6=O)c(O)cc(O)c3c2O)O1 (stereo not drawn)

31.5 µM
0.41 µM
